Tested on: NCI-H226
assayRemarks: Growth inhibition of human NCI-H226 cells assessed as cell viability at 10 uM incubated for 48 hrs by sulforhodamine B assay
Format: functional
conditionNotes: NCI-H226, 48 h, read-out: Activity
Under this convention, Condition met denotes viability at 10 µM strictly below 90% and Condition not met denotes viability at 10 µM at or above 90%.

Solved cases (3 shown):
# compound, experimentalTarget, assignedLabel
measured = [
    ("COc1ccc(C2CC(c3cc4ccccc4oc3=O)=NN2c2ccc(S(=O)(=O)NC(=O)Nc3ccccc3C)cc2)cc1 (stereo not given)", "NCI-H226", "Condition met"),
    ("O=C(NCc1ccccc1)NS(=O)(=O)c1ccc(N2N=C(c3cc4ccccc4oc3=O)CC2c2cccs2)cc1 (stereo not given)", "NCI-H226", "Condition not met"),
    ("CN(C)c1ccc(C2CC(c3cc4ccccc4oc3=O)=NN2c2ccc(S(=O)(=O)NC(=O)NCc3ccccc3)cc2)cc1 (stereo not given)", "NCI-H226", "Condition met"),
]

Please find the next compound below.
## Input A record lists COc1ccc(C2CC(c3ccco3)=NN2c2ccc(S(=O)(=O)NC(=O)NCc3ccccc3)cc2)cc1 (stereo not given) . Is its viability at 10 µM below 90%?
## Output Condition not met

----------
System: NCI-H460
assayRemarks: Growth inhibition of human NCI-H460 cells assessed as cell viability at 10 uM incubated for 48 hrs by sulforhodamine B assay
Assay type: functional
conditionNotes: NCI-H460, 48 h, read-out: Activity
// reported viability at 10 µM per item
Dear colleague, please return just the value in %, with no unit written.

# compound, assayMetric, recordedResult
records = [
    ("COc1ccc(C2CC(c3cc4ccccc4oc3=O)=NN2c2ccc(S(=O)(=O)NC(=O)Nc3ccccc3C)cc2)cc1 (stereo not given)", "viability at 10 µM", 99.8),
]

API: the following record is the query input.
## Input Any idea what its viability at 10 µM is? The compound is COc1ccc(NC(=O)NS(=O)(=O)c2ccc(N3N=C(c4cc5ccccc5oc4=O)CC3c3ccc(N(C)C)cc3)cc2)cc1 (stereo not given)
## Output 105

----------
assayRemarks: Growth inhibition of human SF295 cells assessed as cell viability at 10 uM incubated for 48 hrs by sulforhodamine B assay
Format: functional
conditionNotes: SF-295, 48 h, read-out: Activity
assayMetric: viability at 10 µM

Examples with answers:
# molecule, viability at 10 µM
measured = [
    ("COc1ccc(NC(=O)NS(=O)(=O)c2ccc(N3N=C(c4cc5ccccc5oc4=O)CC3c3ccc(N(C)C)cc3)cc2)cc1 (stereo not given)", "83.8%"),
    ("COc1ccc(C2CC(c3cc4ccccc4oc3=O)=NN2c2ccc(S(=O)(=O)NC(=O)Nc3ccccc3C)cc2)cc1 (stereo not given)", "93.8%"),
    ("COc1ccc(C2CC(c3ccco3)=NN2c2ccc(S(=O)(=O)NC(=O)NCc3ccccc3)cc2)cc1 (stereo not given)", "95.9%"),
    ("O=C(NCc1ccccc1)NS(=O)(=O)c1ccc(N2N=C(c3cc4ccccc4oc3=O)CC2c2cccs2)cc1 (stereo not given)", "93.8%"),
]

API: the following record is the query input.
## Input Any idea what its viability at 10 µM is? The molecule is CN(C)c1ccc(C2CC(c3cc4ccccc4oc3=O)=NN2c2ccc(S(=O)(=O)NC(=O)NCc3ccccc3)cc2)cc1 (stereo not given)
## Output 61.7%
